biological target: T1, human Insulin Receptor A (hIR-A) (human, UniProt P06213-2 28-1370); assay: SPA, relative hIR-A affinity at 20 mM vs 0 mM glucose, 1.5% HSA
T1 construct: Solubilised semi-purified receptor captured on SPA beads by antibody 83-7
T1 sequence (P06213 other isoform, or with tags, fused parts or gaps limits assumed): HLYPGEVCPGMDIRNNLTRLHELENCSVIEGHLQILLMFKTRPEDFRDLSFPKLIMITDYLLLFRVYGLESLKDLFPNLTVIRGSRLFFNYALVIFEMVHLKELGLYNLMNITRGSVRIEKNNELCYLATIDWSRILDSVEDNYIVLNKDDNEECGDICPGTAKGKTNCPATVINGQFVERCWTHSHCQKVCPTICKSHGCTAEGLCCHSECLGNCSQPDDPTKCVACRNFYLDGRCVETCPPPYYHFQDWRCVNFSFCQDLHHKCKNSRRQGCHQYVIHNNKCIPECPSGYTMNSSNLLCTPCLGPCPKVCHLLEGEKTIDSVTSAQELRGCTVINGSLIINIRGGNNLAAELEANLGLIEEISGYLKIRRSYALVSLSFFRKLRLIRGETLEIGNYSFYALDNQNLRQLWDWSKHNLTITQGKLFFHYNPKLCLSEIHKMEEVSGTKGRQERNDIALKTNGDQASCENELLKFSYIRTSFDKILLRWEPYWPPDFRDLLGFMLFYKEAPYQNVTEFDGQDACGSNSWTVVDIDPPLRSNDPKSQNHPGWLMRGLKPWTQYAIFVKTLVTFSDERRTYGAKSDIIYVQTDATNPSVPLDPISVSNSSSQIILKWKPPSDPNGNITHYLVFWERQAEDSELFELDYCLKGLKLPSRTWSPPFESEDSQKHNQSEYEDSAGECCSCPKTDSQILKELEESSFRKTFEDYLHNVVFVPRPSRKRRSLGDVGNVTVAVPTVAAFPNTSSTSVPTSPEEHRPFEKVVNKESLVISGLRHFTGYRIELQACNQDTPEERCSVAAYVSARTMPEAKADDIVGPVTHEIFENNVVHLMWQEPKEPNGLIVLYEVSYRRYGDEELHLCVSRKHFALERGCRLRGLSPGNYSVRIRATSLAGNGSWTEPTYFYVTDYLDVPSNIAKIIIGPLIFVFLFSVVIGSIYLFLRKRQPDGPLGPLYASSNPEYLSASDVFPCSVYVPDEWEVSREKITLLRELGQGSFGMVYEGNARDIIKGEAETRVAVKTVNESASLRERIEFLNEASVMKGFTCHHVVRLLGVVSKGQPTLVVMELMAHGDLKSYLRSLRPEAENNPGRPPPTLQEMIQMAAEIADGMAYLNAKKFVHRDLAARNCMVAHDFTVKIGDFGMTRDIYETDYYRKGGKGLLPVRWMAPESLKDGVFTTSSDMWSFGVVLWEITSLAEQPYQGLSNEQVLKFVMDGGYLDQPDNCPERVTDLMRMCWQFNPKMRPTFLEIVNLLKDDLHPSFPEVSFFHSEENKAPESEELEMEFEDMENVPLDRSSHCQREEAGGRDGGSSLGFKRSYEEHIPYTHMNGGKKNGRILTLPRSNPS
experimental.endpoint: HIR glucose factor, 20 mM glucose 1.5% HSA (fold)
Respond numerically; units are fold and should not be typed.

Task item: May I ask what HIR glucose factor, 20 mM glucose 1.5% HSA has been recorded for Compound of Example 152 (ligand, not fully specified; diboron group from building block of example 15; sites only in drawing) chain 1: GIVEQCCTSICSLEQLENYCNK chain 2: FVNQHLCGSHLVEALYLVCGERGFHYPGK ?
Reply: 2.9

Task item: # repeat for Compound of Example 155 (ligand, not fully specified; diboron group from building block of example 19; sites only in drawing) chain 1: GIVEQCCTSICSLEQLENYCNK chain 2: FVNQHLCGSHLVEALYLVCGERGFHYPK
Reply: 3
